This collection of values is drawn from patent US20250368753A1.

# Lookup of reported Relative Binding to PCSK9 Measured by DELIFA Immunoassay keyed by entry
Target: proprotein convertase subtilisin/kexin type 9 (PCSK9) (human) (UniProt Q8NBP7)
Experiment: DELFIA immunoassay (PerkinElmer Cat. #1244-330), full-length IgG on PCSK9
readoutType: Relative Binding to PCSK9 Measured by DELIFA Immunoassay

binder	val
AB-7 (antibody, V domains shown) VH: QVQLVQSGAEVKKPGASVKVSCKASGYTFTSYYMHWVRQAPGQGLEWMGEIFPSGGRTNYNEKFKSRVTMTRDTSTSTVYMELSSLRSEDTAVYYCARERPFYASDLWGQGTTVTVSS VL: DIQMTQSPSSLSASVGDRVTITCRASQGISSALAWYQQKPGKAPKLLIYSASNLYTGVPSRFSGSGSGTDFTFTISSLQPEDIATYYCQQRYSLWRTFGQGTKLEIK	2
AB-10 (antibody, V domains shown) VH: QVQLVQSGAEVKKPGASVKVSCKASGYTFTSYYMHWVRQAPGQGLEWMGEILPSGGRTNYNEKFKSRVTMTRDTSTSTVYMELSSLRSEDTAVYYCARERPLYAMDVWGQGTTVTVSS VL: DIQMTQSPSSLSASVGDRVTITCRASQGISSALAWYQQKPGKAPKLLIYSASYRYTGVPSRFSGSGSGTDFTFTISSLQPEDIATYYCQQRYSVALTFGQGTKLEIK	4.3
Reference Antibody (antibody, V domains shown) VH: QVQLVQSGAEVKKPGASVKVSCKASGYTFTSYYMHWVRQAPGQGLEWMGEISPFGGRTNYNEKFKSRVTMTRDTSTSTVYMELSSLRSEDTAVYYCARERPLYASDLWGQGTTVTVSS VL: DIQMTQSPSSLSASVGDRVTITCRASQGISSALAWYQQKPGKAPKLLIYSASYRYTGVPSRFSGSGSGTDFTFTISSLQPEDIATYYCQQRYSLWRTFGQGTKLEIK	6.6
